Task for the reader: assign each of the following compounds its reported Emax.
Target: sGC α1/β1 heterodimer (Homo sapiens, UniProt Q02108+Q02153)
Construct: expressed in transfected cells; host or cells: CHO-K1 (clone #7, CHO-K1/sGC)
Sequence (Q02108 1-690): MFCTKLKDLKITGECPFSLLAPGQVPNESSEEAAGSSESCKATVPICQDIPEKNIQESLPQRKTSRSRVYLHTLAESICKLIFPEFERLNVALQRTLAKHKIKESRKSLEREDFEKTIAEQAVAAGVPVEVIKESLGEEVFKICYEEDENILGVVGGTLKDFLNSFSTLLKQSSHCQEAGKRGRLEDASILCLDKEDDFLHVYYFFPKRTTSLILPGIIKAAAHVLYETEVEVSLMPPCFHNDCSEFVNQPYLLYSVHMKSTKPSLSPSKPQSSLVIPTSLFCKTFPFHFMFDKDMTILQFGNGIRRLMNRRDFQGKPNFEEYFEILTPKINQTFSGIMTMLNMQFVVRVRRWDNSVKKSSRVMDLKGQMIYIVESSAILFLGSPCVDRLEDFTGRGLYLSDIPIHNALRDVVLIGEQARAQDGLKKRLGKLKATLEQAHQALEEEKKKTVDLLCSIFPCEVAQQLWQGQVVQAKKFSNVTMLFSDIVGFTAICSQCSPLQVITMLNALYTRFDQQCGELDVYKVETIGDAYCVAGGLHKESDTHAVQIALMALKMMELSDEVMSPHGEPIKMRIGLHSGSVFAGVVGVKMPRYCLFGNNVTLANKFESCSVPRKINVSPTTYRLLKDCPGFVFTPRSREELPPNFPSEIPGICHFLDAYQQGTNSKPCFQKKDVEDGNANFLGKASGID
Sequence (Q02153 1-619): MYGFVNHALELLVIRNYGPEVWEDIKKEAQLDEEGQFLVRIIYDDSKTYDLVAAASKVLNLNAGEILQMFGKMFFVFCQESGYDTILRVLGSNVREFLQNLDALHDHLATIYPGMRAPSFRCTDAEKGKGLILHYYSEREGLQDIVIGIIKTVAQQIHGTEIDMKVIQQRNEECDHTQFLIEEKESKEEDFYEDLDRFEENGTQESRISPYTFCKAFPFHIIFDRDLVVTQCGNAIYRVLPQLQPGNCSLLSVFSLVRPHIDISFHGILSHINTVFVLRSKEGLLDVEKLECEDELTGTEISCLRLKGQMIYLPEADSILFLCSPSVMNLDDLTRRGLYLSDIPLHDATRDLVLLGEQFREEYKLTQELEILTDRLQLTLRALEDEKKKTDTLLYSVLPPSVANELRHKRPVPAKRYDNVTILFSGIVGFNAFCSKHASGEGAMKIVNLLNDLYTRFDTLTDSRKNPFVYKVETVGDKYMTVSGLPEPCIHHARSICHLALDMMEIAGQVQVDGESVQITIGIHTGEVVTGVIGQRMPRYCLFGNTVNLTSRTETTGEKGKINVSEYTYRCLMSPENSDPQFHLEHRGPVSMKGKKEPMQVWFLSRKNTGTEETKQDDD
Test: Cell-based sGC functional assay (CASA assay): cGMP generation in CHO-K1/sGC cells, HTRF detection
Conditions: CHO-K1, percent activation relative to standard Compound A in CHO-K1/sGC cells; read-out: % Act.
Write the value in % as a bare number.

Reported Emax for CC(C)(C)CCc1nc(-c2nc(N)c3c(n2)NC(=O)C3(C)c2ccc(F)cn2)cn2ccnc12 (stereo not shown) [Example 122B] was 119

Reported Emax for Nc1nc(-c2cn3ccnc3c(CCC(F)(F)F)n2)nc2c1C(c1ccc(Cl)cn1)(C1CC1)C(=O)N2 (single isomer, unassigned) [Example 331B] was 157

Reported Emax for Cc1nnc(C2(C)C(=O)Nc3nc(-c4cn5ccnc5c(CCC(F)(F)C(F)(F)F)n4)nc(N)c32)o1 (stereo not shown) [Example 57A] was 101

Reported Emax for CCC1(c2ccc(F)cc2)C(=O)Nc2nc(-c3cn4ccnc4c(CCC(F)(F)C(F)(F)F)n3)nc(N)c21 (stereo not shown) [Example 239A] was 97

Reported Emax for Nc1nc(-c2cn3cc(C(F)(F)F)nc3c(Cc3ccccc3)n2)nc2c1C(C(=O)NC1CC1)(C1CC1)C(=O)N2 (stereo not shown) [Example 51A] was 93

Reported Emax for Nc1nc(-c2cn3ccnc3c(CCC(F)(F)C(F)(F)F)n2)nc2c1C(c1ccc(F)cc1)(C1CC1)C(=O)N2 (stereo not shown) [Example 233B] was 131

Reported Emax for COc1ccc(C2(C)C(=O)Nc3nc(-c4cn5ccnc5c(CCC(F)(F)C(F)(F)F)n4)nc(N)c32)cc1 (stereo not shown) [Example 229B] was 122
